Below: a set of entries, each annotated with reported pKi.
- SYSTEM_NAME: Muscarinic acetylcholine receptor M1 (Rattus norvegicus, UniProt P08482)
- Sequence (P08482 whole entry): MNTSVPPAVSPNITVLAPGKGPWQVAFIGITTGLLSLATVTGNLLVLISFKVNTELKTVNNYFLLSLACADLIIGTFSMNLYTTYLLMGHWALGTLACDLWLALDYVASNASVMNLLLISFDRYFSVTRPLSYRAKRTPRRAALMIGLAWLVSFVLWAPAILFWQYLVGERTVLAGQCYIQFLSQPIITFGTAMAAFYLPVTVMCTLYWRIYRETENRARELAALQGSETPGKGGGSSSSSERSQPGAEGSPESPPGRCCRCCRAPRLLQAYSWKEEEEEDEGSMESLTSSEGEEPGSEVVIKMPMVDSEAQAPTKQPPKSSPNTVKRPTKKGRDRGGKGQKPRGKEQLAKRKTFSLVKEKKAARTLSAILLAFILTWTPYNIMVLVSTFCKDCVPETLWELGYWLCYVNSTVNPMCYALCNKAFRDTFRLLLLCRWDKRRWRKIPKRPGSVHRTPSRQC
Note on pKi: it is the negative log10 of concentration, concentration in mol/L.

Use these answered entries as a reference point.
>  <MOLECULE>
CCCCC(=O)N/N=C1\CC2(CCN(C)CC2)OC1C (stereo not drawn)

>  <SYSTEM_NAME>
Muscarinic acetylcholine receptor M1 (Rattus norvegicus, UniProt P08482)

>  <pKi>
4.39

$$$$
>  <MOLECULE>
CCC(=O)N/N=C1\CC2(CCN(C)CC2)OC1C (stereo not drawn)

>  <SYSTEM_NAME>
Muscarinic acetylcholine receptor M1 (Rattus norvegicus, UniProt P08482)

>  <pKi>
4.12

$$$$
>  <MOLECULE>
CCCCCCCC(=O)N(C)/N=C1\CC2(CCN(C)CC2)OC1C (stereo not drawn)

>  <SYSTEM_NAME>
Muscarinic acetylcholine receptor M1 (Rattus norvegicus, UniProt P08482)

>  <pKi>
5.06

$$$$
>  <MOLECULE>
CC1OC2(CCN(C)CC2)C/C1=N\NC(=O)C(C)(C)C (stereo not drawn)

>  <SYSTEM_NAME>
Muscarinic acetylcholine receptor M1 (Rattus norvegicus, UniProt P08482)

>  <pKi>
4.82

$$$$
>  <MOLECULE>
CC1OC2(CCN(C)CC2)C/C1=N\NC(=O)Cc1ccccc1 (stereo not drawn)

>  <SYSTEM_NAME>
Muscarinic acetylcholine receptor M1 (Rattus norvegicus, UniProt P08482)

>  <pKi>
4.52

$$$$

For the molecule shown here, CC(=O)N/N=C1\CC2(CCN(C)CC2)OC1C (stereo not drawn) , give the reported pKi.
4.00

Check CCCCCCCCC(=O)N/N=C1\CC2(CCN(C)CC2)OC1C (stereo not drawn) too.
5.05

Same for CC(=O)N(C)/N=C1\CC2(CCN(C)CC2)OC1C (stereo not drawn)
4.22

And CC(=O)N/N=C1\CC2(CCNCC2)OC1C (stereo not drawn) ?
3.74

Further, for COC(=O)N/N=C1\CC2(CCN(C)CC2)OC1C (stereo not drawn) ?
4.60
